Source of measurements: ChEMBL document CHEMBL2203084

tested on: Nucleic Acid; test: Binding affinity to Tel22 G-quadruplex DNA at 2:1 compound to DNA ratio by UV-spectrometer; assay type: nucleic-acid assay
value-type: ΔTm (°C)
Numbers only, in °C.

Solved entries (count: 5):
mol | val
CC1(C)C(/C=C/C(Br)=C/C=C2/N(CCC[N+](C)(C)C)c3ccc(Cl)cc3C2(C)C)=[N+](CCC[N+](C)(C)C)c2ccc(Cl)cc21 | 8
CC1(C)C(/C=C/C(Cl)=C/C=C2/N(CCC[N+](C)(C)C)c3ccc(Cl)cc3C2(C)C)=[N+](CCC[N+](C)(C)C)c2ccc(Cl)cc21 | 7
CC1(C)C(/C=C/C=C/C=C2/N(CCC[N+](C)(C)C)c3ccc(Br)cc3C2(C)C)=[N+](CCC[N+](C)(C)C)c2ccc(Br)cc21 | 2.5
CC1(C)C(/C=C/C(Br)=C/C=C2/N(CCC[N+](C)(C)C)c3ccc(Br)cc3C2(C)C)=[N+](CCC[N+](C)(C)C)c2ccc(Br)cc21 | 8
CC1(C)C(/C=C/C(Br)=C/C=C2/N(CCC[N+](C)(C)C)c3ccccc3C2(C)C)=[N+](CCC[N+](C)(C)C)c2ccccc21 | 4.6

For the 4 compounds below, give their ΔTm values.
1. CC1(C)C(/C=C/C(Cl)=C/C=C2/N(CCC[N+](C)(C)C)c3ccccc3C2(C)C)=[N+](CCC[N+](C)(C)C)c2ccccc21
2. CC1(C)C(/C=C/C=C/C=C2/N(CCC[N+](C)(C)C)c3ccccc3C2(C)C)=[N+](CCC[N+](C)(C)C)c2ccccc21
3. CC1(C)C(/C=C/C=C/C=C2/N(CCC[N+](C)(C)C)c3ccc(Cl)cc3C2(C)C)=[N+](CCC[N+](C)(C)C)c2ccc(Cl)cc21
4. CC1(C)C(/C=C/C(Cl)=C/C=C2/N(CCC[N+](C)(C)C)c3ccc(Br)cc3C2(C)C)=[N+](CCC[N+](C)(C)C)c2ccc(Br)cc21

Output line:
[4.6, 2.1, 3.1, 9]
